Some compounds, each annotated with its measured IC50.
- SYSTEM_TESTED: Arachidonate 5-lipoxygenase (Cavia porcellus)
- EXPERIMENT_SUMMARY: Evaluated for inhibition of the formation and release of 5-lipoxygenase in guinea pig peritoneal PMNL
QUANTITY_MEASURED: IC50 (nM)

CCCC1Oc2c(C)c(C)c(O)c(C)c2S1 (stereo unspecified) | 25
CCCCC1Oc2c(C)c(C)c(O)c(C)c2S1 (stereo unspecified) | 59
Cc1c(C)c2c(c(C)c1O)SC(CCC(N)=O)O2 (stereo unspecified) | 520
Cc1c(C)c2c(c(C)c1O)SCO2 | 290
CCCCCCCC1Oc2c(C)c(C)c(O)c(C)c2S1 (stereo unspecified) | 220
Cc1c(C)c2c(c(C)c1O)SC(c1ccccc1)O2 (stereo unspecified) | 71
